The measured values listed here are drawn from paper PMC6110851.

assay.explanation: MicroPET distribution of [^18F]-GA after PG polysaccharides intervention
Assay type: in vivo, mice
setup.conditions: male, Kunming, mouse, lungs, intravenous, mice, control group, Time(s) 5700; read-out: %ID/g of [^18F]-GA in the lungs, Con
readout.kind: tissue uptake at 5700 s

compound	measured.value
CC1(C)[C@@H](O)CC[C@]2(C)[C@H]3C(=O)C=C4[C@@H]5C[C@@](C)(C(=O)NCCCC[18F])CC[C@]5(C)CC[C@@]4(C)[C@]3(C)CC[C@@H]12 [[^18F]-GA, [^18F]-Glycyrrhetinic acid]	1.02 %ID/g

----------
assay.explanation: MicroPET distribution of [^18F]-GA after PG polysaccharides intervention
Type: in vivo, mice
setup.conditions: male, Kunming, mouse, lungs, po, mice, PG polysaccharides orally for 7 days, Time(s) 4500; read-out: %ID/g of [^18F]-GA in the lungs, LA
Protocol: The mice were grouped by weight and housed in cages of the climate control room (25°C), with a photoperiod 12:12-h. During feeding, mice were free to access food and water. Mice were fasted for 24 h before the experiment. The mice were anesthetized with 4% isoflurane while preparing for scanning ([Constantinescu et al., 2013b]; [Cui et al., 2017]). […]
readout.kind: tissue uptake at 168 h

compound	measured.value
CC1(C)[C@@H](O)CC[C@]2(C)[C@H]3C(=O)C=C4[C@@H]5C[C@@](C)(C(=O)NCCCC[18F])CC[C@]5(C)CC[C@@]4(C)[C@]3(C)CC[C@@H]12 [[^18F]-GA, [^18F]-Glycyrrhetinic acid]	1.24 %ID/g

----------
assay.explanation: MicroPET distribution of [^18F]-GA after PG polysaccharides intervention
Assay type: in vivo, mice
setup.conditions: male, Kunming, mouse, lungs, intravenous, mice, control group, Time(s) 1020; read-out: %ID/g of [^18F]-GA in the lungs, Con
readout.kind: tissue uptake at 1020 s (%ID/g)

compound	measured.value
CC1(C)[C@@H](O)CC[C@]2(C)[C@H]3C(=O)C=C4[C@@H]5C[C@@](C)(C(=O)NCCCC[18F])CC[C@]5(C)CC[C@@]4(C)[C@]3(C)CC[C@@H]12 [[^18F]-GA, [^18F]-Glycyrrhetinic acid]	2.09

----------
assay.explanation: MicroPET distribution of [^18F]-GA after PG polysaccharides intervention
Assay type: in vivo, mice
setup.conditions: male, Kunming, mouse, lungs, po, mice, PG polysaccharides orally for 7 days, Time(s) 660; read-out: %ID/g of [^18F]-GA in the lungs, LA
readout.kind: tissue uptake at 168 h (%ID/g)

molecule	measured.value
CC1(C)[C@@H](O)CC[C@]2(C)[C@H]3C(=O)C=C4[C@@H]5C[C@@](C)(C(=O)NCCCC[18F])CC[C@]5(C)CC[C@@]4(C)[C@]3(C)CC[C@@H]12 [[^18F]-GA, [^18F]-Glycyrrhetinic acid]	2.9

----------
assay.explanation: MicroPET distribution of [^18F]-GA after PG polysaccharides intervention
Format: in vivo, mice
setup.conditions: male, Kunming, mouse, lungs, po, mice, PG polysaccharides orally 1 h before [^18F]-GA, Time(s) 780; read-out: %ID/g of [^18F]-GA in the lungs, OA
readout.kind: tissue uptake at 1 h (%ID/g)

molecule	measurement.unit	measured.value
CC1(C)[C@@H](O)CC[C@]2(C)[C@H]3C(=O)C=C4[C@@H]5C[C@@](C)(C(=O)NCCCC[18F])CC[C@]5(C)CC[C@@]4(C)[C@]3(C)CC[C@@H]12 [[^18F]-GA, [^18F]-Glycyrrhetinic acid]	%ID/g	4.54

----------
assay.explanation: MicroPET distribution of [^18F]-GA after PG polysaccharides intervention
Type: in vivo, mice
setup.conditions: male, Kunming, mouse, lungs, po, mice, PG polysaccharides orally for 7 days, Time(s) 900; read-out: %ID/g of [^18F]-GA in the lungs, LA
readout.kind: tissue uptake at 168 h

compound	measured.value
CC1(C)[C@@H](O)CC[C@]2(C)[C@H]3C(=O)C=C4[C@@H]5C[C@@](C)(C(=O)NCCCC[18F])CC[C@]5(C)CC[C@@]4(C)[C@]3(C)CC[C@@H]12 [[^18F]-GA, [^18F]-Glycyrrhetinic acid]	2.49 %ID/g

----------
assay.explanation: MicroPET distribution of [^18F]-GA after PG polysaccharides intervention
Assay type: in vivo, mice
setup.conditions: male, Kunming, mouse, lungs, po, mice, PG polysaccharides orally for 7 days, Time(s) 1140; read-out: %ID/g of [^18F]-GA in the lungs, LA
Protocol: The mice were grouped by weight and housed in cages of the climate control room (25°C), with a photoperiod 12:12-h. During feeding, mice were free to access food and water. Mice were fasted for 24 h before the experiment. The mice were anesthetized with 4% isoflurane while preparing for scanning ([Constantinescu et al., 2013b]; [Cui et al., 2017]). […]

molecule	tissue uptake at 168 h (%ID/g)
CC1(C)[C@@H](O)CC[C@]2(C)[C@H]3C(=O)C=C4[C@@H]5C[C@@](C)(C(=O)NCCCC[18F])CC[C@]5(C)CC[C@@]4(C)[C@]3(C)CC[C@@H]12 [[^18F]-GA, [^18F]-Glycyrrhetinic acid]	2.19

----------
assay.explanation: MicroPET distribution of [^18F]-GA after PG polysaccharides intervention
Assay type: in vivo, mice
setup.conditions: male, Kunming, mouse, lungs, po, mice, PG polysaccharides orally for 7 days, Time(s) 5100; read-out: %ID/g of [^18F]-GA in the lungs, LA
readout.kind: tissue uptake at 168 h

compound	measured.value
CC1(C)[C@@H](O)CC[C@]2(C)[C@H]3C(=O)C=C4[C@@H]5C[C@@](C)(C(=O)NCCCC[18F])CC[C@]5(C)CC[C@@]4(C)[C@]3(C)CC[C@@H]12 [[^18F]-GA, [^18F]-Glycyrrhetinic acid]	1.18 %ID/g

----------
assay.explanation: MicroPET distribution of [^18F]-GA after PG polysaccharides intervention
Type: in vivo, mice
setup.conditions: male, Kunming, mouse, lungs, intravenous, mice, control group, Time(s) 1140; read-out: %ID/g of [^18F]-GA in the lungs, Con

molecule	measurement.unit	tissue uptake at 1140 s
CC1(C)[C@@H](O)CC[C@]2(C)[C@H]3C(=O)C=C4[C@@H]5C[C@@](C)(C(=O)NCCCC[18F])CC[C@]5(C)CC[C@@]4(C)[C@]3(C)CC[C@@H]12 [[^18F]-GA, [^18F]-Glycyrrhetinic acid]	%ID/g	1.9

----------
assay.explanation: MicroPET distribution of [^18F]-GA after PG polysaccharides intervention
Assay type: in vivo, mice
setup.conditions: male, Kunming, mouse, lungs, intravenous, mice, control group, Time(s) 540; read-out: %ID/g of [^18F]-GA in the lungs, Con
readout.kind: tissue uptake at 540 s (%ID/g)

molecule	readout.kind	measurement.unit	measured.value
CC1(C)[C@@H](O)CC[C@]2(C)[C@H]3C(=O)C=C4[C@@H]5C[C@@](C)(C(=O)NCCCC[18F])CC[C@]5(C)CC[C@@]4(C)[C@]3(C)CC[C@@H]12 [[^18F]-GA, [^18F]-Glycyrrhetinic acid]	tissue uptake at 540 s	%ID/g	2.42

----------
assay.explanation: MicroPET distribution of [^18F]-GA after PG polysaccharides intervention
Format: in vivo, mice
setup.conditions: male, Kunming, mouse, lungs, po, mice, PG polysaccharides orally for 7 days, Time(s) 180; read-out: %ID/g of [^18F]-GA in the lungs, LA
Description: The mice were grouped by weight and housed in cages of the climate control room (25°C), with a photoperiod 12:12-h. During feeding, mice were free to access food and water. Mice were fasted for 24 h before the experiment. The mice were anesthetized with 4% isoflurane while preparing for scanning ([Constantinescu et al., 2013b]; [Cui et al., 2017]). […]
readout.kind: tissue uptake at 168 h (%ID/g)

compound	measured.value
CC1(C)[C@@H](O)CC[C@]2(C)[C@H]3C(=O)C=C4[C@@H]5C[C@@](C)(C(=O)NCCCC[18F])CC[C@]5(C)CC[C@@]4(C)[C@]3(C)CC[C@@H]12 [[^18F]-GA, [^18F]-Glycyrrhetinic acid]	4.38

----------
assay.explanation: MicroPET distribution of [^18F]-GA after PG polysaccharides intervention
Assay type: in vivo, mice
setup.conditions: male, Kunming, mouse, lungs, intravenous, mice, control group, Time(s) 6900; read-out: %ID/g of [^18F]-GA in the lungs, Con
readout.kind: tissue uptake at 6900 s (%ID/g)

molecule	readout.kind	measured.value
CC1(C)[C@@H](O)CC[C@]2(C)[C@H]3C(=O)C=C4[C@@H]5C[C@@](C)(C(=O)NCCCC[18F])CC[C@]5(C)CC[C@@]4(C)[C@]3(C)CC[C@@H]12 [[^18F]-GA, [^18F]-Glycyrrhetinic acid]	tissue uptake at 6900 s	0.94

----------
assay.explanation: MicroPET distribution of [^18F]-GA after PG polysaccharides intervention
Format: in vivo, mice
setup.conditions: male, Kunming, mouse, lungs, intravenous, mice, control group, Time(s) 420; read-out: %ID/g of [^18F]-GA in the lungs, Con
readout.kind: tissue uptake at 420 s (%ID/g)

molecule	readout.kind	measurement.unit	measured.value
CC1(C)[C@@H](O)CC[C@]2(C)[C@H]3C(=O)C=C4[C@@H]5C[C@@](C)(C(=O)NCCCC[18F])CC[C@]5(C)CC[C@@]4(C)[C@]3(C)CC[C@@H]12 [[^18F]-GA, [^18F]-Glycyrrhetinic acid]	tissue uptake at 420 s	%ID/g	2.78
